- target or test system: APOL1 (Homo sapiens)
- protocol text: Multi-Tox Assay (MultiTox-Fluor Multiplex Cytotoxicity Assay in tet-inducible APOL1 T-REx-HEK293 cells; Table 46 does not say which APOL1 variant G0/G1/G2)
- Format: cell-based
- run conditions: APOL1 variant not given
result type: Multi-Tox Assay Max Activity (%)
Hi! Could you send only the number? It should be in %, unit omitted.

>  <compound>
CC(CO)Cn1cc([C@@H]2C[C@]3(C[C@H](C)N2)OC[C@@H](O)c2cc(Cl)sc23)nn1 (stereo partly shown) [Compound 256]

>  <target or test system>
APOL1 (Homo sapiens)

>  <display unit>
%

>  <Multi-Tox Assay Max Activity (%)>
96.0

$$$$
>  <compound>
CC(C)C(=O)NCCn1cc([C@@H]2C[C@]3(C[C@H](C)N2)OCC(F)(F)c2cc(Cl)sc23)nn1 [Compound 345]

>  <target or test system>
APOL1 (Homo sapiens)

>  <display unit>
%

>  <Multi-Tox Assay Max Activity (%)>
99.0

$$$$
>  <compound>
Cc1cc(C)nc(CCn2cc([C@@H]3C[C@]4(C[C@H](C)N3)OCC(F)(F)c3cc(Cl)sc34)nn2)c1 [Compound 351]

>  <target or test system>
APOL1 (Homo sapiens)

>  <display unit>
%

>  <Multi-Tox Assay Max Activity (%)>
98.0

$$$$
>  <compound>
C[C@H]1C[C@@]2(C[C@@H](c3cn(Cc4ccc(CO)cc4)nn3)N1)OCC(F)(F)c1cc(Cl)sc12 [Compound 225]

>  <target or test system>
APOL1 (Homo sapiens)

>  <display unit>
%

>  <Multi-Tox Assay Max Activity (%)>
97.0

$$$$
>  <compound>
C[C@H]1C[C@@]2(C[C@@H](c3cn(Cc4cnccn4)nn3)N1)OCC(F)(F)c1cc(Cl)sc12 [Compound 317]

>  <target or test system>
APOL1 (Homo sapiens)

>  <display unit>
%

>  <Multi-Tox Assay Max Activity (%)>
98.0

$$$$
>  <compound>
Cc1cnc([C@@H]2C[C@]3(C[C@H](C)N2)OCCc2cc(Cl)sc23)o1 (racemic) [Compound 134]

>  <target or test system>
APOL1 (Homo sapiens)

>  <display unit>
%

>  <Multi-Tox Assay Max Activity (%)>
99.2

$$$$

Continue with the next compound.
In: Param readout= Multi-Tox Assay Max Activity (%); system= APOL1 (Homo sapiens); entry= C[C@H]1C[C@@]2(C[C@@H](c3cn(CC4(CO)CC4)nn3)N1)OC[C@@H](O)c1cc(Cl)sc12 [Compound 242] ; returns value.
Out: 97.0

====

- target or test system: APOL1 G1 (Homo sapiens, UniProt O14791, I384M/S342G)
- Sequence (O14791 28-398 S342G/I384M): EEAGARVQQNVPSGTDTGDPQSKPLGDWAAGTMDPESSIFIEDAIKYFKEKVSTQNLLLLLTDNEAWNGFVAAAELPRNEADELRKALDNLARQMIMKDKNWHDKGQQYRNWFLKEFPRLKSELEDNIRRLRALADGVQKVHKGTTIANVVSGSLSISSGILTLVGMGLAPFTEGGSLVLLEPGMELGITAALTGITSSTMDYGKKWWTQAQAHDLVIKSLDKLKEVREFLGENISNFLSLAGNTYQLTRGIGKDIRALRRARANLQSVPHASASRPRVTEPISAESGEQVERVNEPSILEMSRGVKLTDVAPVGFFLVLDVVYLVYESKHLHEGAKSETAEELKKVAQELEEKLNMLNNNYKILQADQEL
- protocol text: Trypanosoma brucei brucei Lysis Assay Using APOL1 Recombinant Protein (AlamarBlue viability readout)
- Format: cell-based
- run conditions: Trypanosome Assay; IP50 = IC50 for cell proliferation; read-out: Trypanosome Assay IP50
pIC50: −log10 of the molar value.
result type: pIC50

Worked cases, pIC50 given:
>  <compound>
C[C@H]1C[C@@]2(C[C@@H](c3cn(C)nn3)N1)OCCc1sc(C(F)(F)F)cc12

>  <measured>
6.30 to 7.30

$$$$
>  <compound>
CC1CC2(CC(c3cccc(C#N)c3)N1)OCCc1cc(Cl)sc12 (stereo not shown)

>  <measured>
> 7.30

$$$$
>  <compound>
C[C@@H]1CC2(C[C@H](C)N1)OCCc1cc(CC(F)F)sc12 (single isomer, unassigned)

>  <measured>
> 7.30

$$$$

Now, please, on to the next compound.
In: Consider the compound Cc1nc([C@@H]2C[C@]3(C[C@H](C)N2)OCCc2cc(Cl)sc23)cn1C (racemic) and give its measured pIC50.
Out: < 6.30

====

- target or test system: APOL1 (Homo sapiens)
- protocol text: Multi-Tox Assay (MultiTox-Fluor Multiplex Cytotoxicity Assay in tet-inducible APOL1 T-REx-HEK293 cells; Table 46 does not say which APOL1 variant G0/G1/G2)
- Format: cell-based
- run conditions: APOL1 variant not given
Listed here: items and their measured Multi-Tox Assay Max Activity (%).
Record the value in %, omitting the unit from your answer.

Record excerpt, results attached:
>  <molecule>
C[C@H]1C[C@@]2(C[C@@H](c3cccc(NS(C)(=O)=O)c3)N1)OCCc1cc(Cl)sc12 (racemic)

>  <target or test system>
APOL1 (Homo sapiens)

>  <Multi-Tox Assay Max Activity (%)>
99.3

$$$$
>  <molecule>
CC(=O)Nc1ccc([C@@H]2C[C@]3(C[C@H](C)N2)OCCc2cc(Cl)sc23)cc1 (racemic)

>  <target or test system>
APOL1 (Homo sapiens)

>  <Multi-Tox Assay Max Activity (%)>
99.7

$$$$
>  <molecule>
C[C@H]1C[C@@]2(C[C@@H](c3cn(CC4CCC(=O)NC4)nn3)N1)OC[C@@H](O)c1cc(Cl)sc12 (stereo partly shown)

>  <target or test system>
APOL1 (Homo sapiens)

>  <Multi-Tox Assay Max Activity (%)>
92.0

$$$$
>  <molecule>
C[C@H]1C[C@@]2(C[C@@H](c3cn(Cc4ccccn4)nn3)N1)OC[C@@H](O)c1cc(Cl)sc12

>  <target or test system>
APOL1 (Homo sapiens)

>  <Multi-Tox Assay Max Activity (%)>
99.0

$$$$
>  <molecule>
CNc1ncc([C@@H]2C[C@]3(C[C@H](C)N2)OCCc2cc(Cl)sc23)cn1 (racemic)

>  <target or test system>
APOL1 (Homo sapiens)

>  <Multi-Tox Assay Max Activity (%)>
99.7

$$$$
>  <molecule>
C[C@H]1C[C@@]2(C[C@@H](c3cn(CC(N)=O)nn3)N1)OCCc1cc(Cl)sc12 (racemic)

>  <target or test system>
APOL1 (Homo sapiens)

>  <Multi-Tox Assay Max Activity (%)>
99.7

$$$$

# evaluate next
In: Endpoint output: Multi-Tox Assay Max Activity (%) of C[C@H]1C[C@@]2(C[C@@H](c3cnc4c(cnn4C)c3)N1)OCCc1cc(Cl)sc12 (racemic) . Value?
Out: 100.0

====

- target or test system: APOL1 (Homo sapiens)
- Sequence (O14791 1-398 S342G/I384M): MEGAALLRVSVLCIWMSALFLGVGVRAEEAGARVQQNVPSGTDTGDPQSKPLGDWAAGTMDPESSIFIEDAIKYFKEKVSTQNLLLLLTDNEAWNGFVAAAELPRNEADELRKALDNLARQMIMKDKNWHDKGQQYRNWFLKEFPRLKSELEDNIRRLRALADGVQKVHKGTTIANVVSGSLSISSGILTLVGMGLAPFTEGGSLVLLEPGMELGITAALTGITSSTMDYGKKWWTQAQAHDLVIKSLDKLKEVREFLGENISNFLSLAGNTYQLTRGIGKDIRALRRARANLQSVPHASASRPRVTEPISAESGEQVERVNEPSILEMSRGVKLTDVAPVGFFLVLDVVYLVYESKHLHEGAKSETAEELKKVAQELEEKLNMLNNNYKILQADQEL
- protocol text: Multi-Tox Assay (MultiTox-Fluor Multiplex Cytotoxicity Assay in tet-inducible APOL1 T-REx-HEK293 cells; Table 46 does not say which APOL1 variant G0/G1/G2)
- Type: cell-based
- run conditions: APOL1 variant not given
// reported Multi-Tox Assay Max Activity (%) for each item listed
Lab book: enter the figure in %, no units written.

Here's what some known entries look like.
>  <compound>
Cc1noc2cc([C@@H]3C[C@]4(C[C@H](C)N3)OCCc3cc(Cl)sc34)ccc12 (racemic)

>  <measured>
100.0

$$$$
>  <compound>
CCC(O)Cn1cc([C@@H]2C[C@]3(C[C@H](C)N2)OCCc2cc(Cl)sc23)nn1 (mixture of isomers)

>  <measured>
99.3

$$$$
>  <compound>
C[C@H]1C[C@@]2(C[C@@H](c3cn(CC#N)nn3)N1)OC[C@@H](O)c1cc(Cl)sc12

>  <measured>
100.0

$$$$
>  <compound>
C[C@H]1C[C@@]2(C[C@@H](c3ccc(O)c(F)c3)N1)OCCc1cc(Cl)sc12 (stereo in doubt)

>  <measured>
99.7

$$$$
>  <compound>
COc1ccc(C2CC3(CC(C)N2)OCCc2cc(Cl)sc23)nc1 (stereo not shown)

>  <measured>
99.0

$$$$
>  <compound>
Cc1cccc([C@@H]2C[C@]3(C[C@H](C)N2)OCCc2cc(Cl)sc23)n1 (racemic)

>  <measured>
99.4

$$$$

Proceed to the following item.
In: Requested read-out: Multi-Tox Assay Max Activity (%). Entry: C[C@H]1CC2(C[C@@H](c3cn(C)nn3)N1)OCC(C)(C)c1sc(Cl)cc12 (stereo in doubt)
Out: 99.0
